Overview of reported inhibition of SARS-CoV-2 cytopathic effect across a group of compounds:
- Tested on: Vero E6 infected with SARS-CoV-2
- testProtocol: inhibition of SARS-CoV-2 cytopathic effect; higher = more antiviral protection, active = above 15
- conditionLabel: 8.33 nM; 48 h
measurementType: inhibition of SARS-CoV-2 cytopathic effect (%)

compound	resultNumber
CCCCCCCC/C=C\CCCCCCCC(=O)N[C@@H](CO)Cc1ccc(O)cc1	-0.46
CCN(CC)C(=O)Nc1ccc(OCC(O)CNC(C)(C)C)c(C(C)=O)c1 (centres undefined)	0.91
O=C1NC(=O)C(c2cnc3ccccn23)=C1c1cn2c3c(cc(F)cc13)CN(C(=O)N1CCCCC1)CC2	7.15
c1ccc2nc(C3=NCCN3)cnc2c1	1.85
Cc1nc2c(c(=O)[nH]1)CSCC2	-1.82
CCCCCC(=O)O[C@]1(C(C)=O)CC[C@H]2[C@@H]3CCC4=CC(=O)CC[C@]4(C)[C@H]3CC[C@@]21C [17-hydroxyprogesterone-caproate]	1.14
c1ccc2sc(SNC3CCCCC3)nc2c1 [N-cyclohexyl-2-benzothiazolesulfenamide]	0.54
c1ccc([C@H]2CNCc3ccccc32)cc1 [4-phenyl-1,2,3,4-tetrahydroisoquinoline]	5.18
CCCCCCCCCCCC1=C(O)C(=O)C=C(O)C1=O	-0.22

* * *

- System: Vero E6 infected with SARS-CoV-2
- testProtocol: inhibition of SARS-CoV-2 cytopathic effect; higher = more antiviral protection, active = above 15
- conditionLabel: 833.33 nM; 48 h
measurementType: inhibition of SARS-CoV-2 cytopathic effect (%)

molecule	resultNumber
CNS(=O)(=O)Nc1nccc(Cc2c(C)c3ccc(Oc4ncccn4)cc3oc2=O)c1F	-17.5
NCC(O)c1ccc(O)cc1 (stereo not given) [octopamine]	-4.12
O=S(=O)(c1cccc2cnccc12)N1CCCNCC1 [fasudil]	-2.42
O=S(=O)(NCC1CC1)c1ccc(Nc2nccc(N3CCCc4cc(O)ccc43)n2)cc1 [pyrintegrin]	14.1
CC(C)c1ccccc1S(=O)(=O)c1cc(N)c2ncccc2c1[N+](=O)[O-]	5.82

* * *

- Tested on: Vero E6 infected with SARS-CoV-2
- testProtocol: inhibition of SARS-CoV-2 cytopathic effect; higher = more antiviral protection, active = above 15
- conditionLabel: 8.33 nM; 48 h
measurementType: inhibition of SARS-CoV-2 cytopathic effect (%)

compound	displayUnit	resultNumber
COc1ccc(-c2oc3c(CC=C(C)C)c(O[C@@H]4O[C@H](CO)[C@@H](O)[C@H](O)[C@H]4O)cc(O)c3c(=O)c2O[C@@H]2O[C@@H](C)[C@H](O)[C@@H](O)[C@H]2O)cc1 [icariin]	%	3.84
Nc1nc2[nH]cc(CCc3ccc(C(=O)N[C@@H](CCC(=O)O)C(=O)O)cc3)c2c(=O)[nH]1 [pemetrexed]	%	0.64
Cc1c(Cl)cccc1S(=O)(=O)Nc1nc(NCCc2ccccc2)nc2c1CN(Cc1ccccc1)CC2	%	1.85
CCN(CC)C(=O)N1CCN(C)CC1 [diethylcarbamazine]	%	-4.75
Clc1ccc(Cn2c(CN3CCCC3)nc3ccccc32)cc1 [clemizole]	%	-2.64
CC[C@H](CO)Nc1nc(NCc2ccccc2)c2ncn(C(C)C)c2n1 [roscovitine]	%	2.46
COc1cc(C(=O)NCC2(N(C)C)CCCC2)cc(OC)c1OCc1ccccc1	%	4.04
COc1ccc2[nH]c([S+]([O-])Cc3ncc(C)c(OC)c3C)nc2c1 (stereo not given) [omeprazole]	%	2.24
O=C(Nc1cccnn1)N1CCC(=Cc2cccc(Oc3ccc(C(F)(F)F)cn3)c2)CC1	%	1.24
CNC(C)(C)Cc1ccccc1 [mephentermine]	%	-4.1
Oc1ncnc2[nH]ncc12 [allopurinol]	%	-12.3
CC(C)OC(=O)[C@H](C)N[P@](=O)(CO[C@H](C)Cn1cnc2c(N)ncnc21)Oc1ccccc1 [tenofovir-alafenamide]	%	-1.55
c1cc(Nc2cc(C3CC3)n[nH]2)nc(Nc2ccc3[nH]cnc3c2)n1	%	-1.82
O=S(=O)(O)Oc1ccc(C(c2ccc(OS(=O)(=O)O)cc2)c2ccccn2)cc1 [sodium-picosulfate]	%	-0.13
C[C@@H](Oc1ccc2[nH]nc(/C=C/c3cnn(CCO)c3)c2c1)c1c(Cl)cncc1Cl	%	-0.97
Cc1ncc(C)n2nc([C@@H]3C[C@H]3c3nc4c5cccnc5ccn4c3C)nc12	%	0.57
Cc1ncc(COP(=O)([O-])[O-])c(CN(CCN(CC(=O)O)Cc2c(COP(=O)([O-])O)cnc(C)c2O)CC(=O)O)c1O.[Mn].[Na+].[Na+].[Na+] [Mangafodipir (trisodium)]	%	-3.12
c1ccc(C(O[C@@H]2CCCN(CCc3ccc4c(c3)OCO4)C2)c2ccccc2)cc1 [zamifenacin]	%	3.7
CN[C@@H](C)[C@H](O)c1ccccc1 [ephedrine]	%	-0.23
CCCN(CCC)[C@H]1CCc2cccc(O)c2C1 [8-hydroxy-DPAT]	%	1.08
C[C@@H](O)[C@H]1C(=O)N2C(C(=O)O)=C(S[C@@H]3CN[C@H](C(=O)N(C)C)C3)[C@H](C)[C@H]12 [meropenem]	%	1.38
CCc1nc(N)nc(N)c1-c1ccc(Cl)cc1 [pyrimethamine]	%	3.29
O=C(Oc1ccc([N+](=O)[O-])cc1)N1CCN(Cc2cccc(Oc3ccccc3)c2)CC1	%	-2.22
COc1ccc(-c2sc(NC(=O)C(C)(C)C)nc2C)cc1S(=O)(=O)Nc1ccc(O)cc1 [PI4KIII-beta-inhibitor-1]	%	-1.82
Cc1cc(=O)n(-c2ccccc2)n1C [phenazone]	%	-0.88
Clc1ccc(CO/N=C(\Cn2ccnc2)c2ccc(Cl)cc2Cl)c(Cl)c1 [oxiconazole]	%	0.43
Nc1ncnc2c1nc(Br)n2[C@@H]1O[C@@H]2COP(=O)(O)O[C@H]2[C@H]1O [8-bromo-cAMP]	%	0.61
c1ccc(CCCCN2CCC(c3ccccc3)CC2)cc1	%	-0.15
O=c1[nH]nc2c3c(cccc13)N=C(CN1Cc3ccccc3C1)N2	%	-0.79
CC(C(=O)O)c1ccc(N2Cc3ccccc3C2=O)cc1 (stereo not given) [indoprofen]	%	0.93
CCOCc1cc(OC)c(-c2ccc(C[C@H](NC(=O)c3c(F)cccc3F)C(=O)O)cc2)c(OC)c1 [firategrast]	%	-0.43
CCCNC(C)(C)COC(=O)c1ccccc1 [meprylcaine]	%	-2.34
COc1ccc(-c2oc3c(CC=C(C)C)c(O)cc(O)c3c(=O)c2O)cc1 [icaritin]	%	0.17
O=C(O)Cn1nnc(-c2cc(N3CCC(Oc4cc(F)ccc4Br)CC3)no2)n1	%	-0.71
C[C@H]1CN(C[C@H](Cc2ccccc2)C(=O)NCC(=O)O)CC[C@@]1(C)c1cccc(O)c1 [alvimopan]	%	3.07
